Value source: patent US12473298B2

Test: Pharmacokinetic experiment in rats
Format: in vivo, SD rats
Details: male, SD, rat, plasma; rats, oral 20 mg/kg vs intravenous 4 mg/kg; read-out: Bioavailability (P %)
ASSAY READOUT: bioavailability (%)
Numbers only, in %.

{"COMPOUND": "CCN(c1cc(-c2ccc3c(c2)NC(=O)C32CCOCC2)cc(C(=O)NCc2c(OC)cc(C)[nH]c2=O)c1C)C1CCOCC1OC (stereo not drawn) [Example 112]", "bioavailability (%)": 25.5}
{"COMPOUND": "CCN1C(=O)C2(CCOCC2)c2ccc(-c3cc(C(=O)NCc4c(C)cc(C)[nH]c4=O)c(C)c(N(CC)C4CCOCC4)c3)cc21 [Example 18]", "bioavailability (%)": 25.5}

# context switch: different compound, same bioavailability
// lookup bioavailability for CCN(c1cc(-c2ccc3c(c2)N(C)C(=O)C32CCN(C(=O)OC)CC2)cc(C(=O)NCc2c(C)cc(C)[nH]c2=O)c1C)C1CCOCC1 [Example 32]
28.8

----------
Target: wild-type EZH2 (Homo sapiens (Human), UniProt Q15910)
Sequence (Q15910 whole entry): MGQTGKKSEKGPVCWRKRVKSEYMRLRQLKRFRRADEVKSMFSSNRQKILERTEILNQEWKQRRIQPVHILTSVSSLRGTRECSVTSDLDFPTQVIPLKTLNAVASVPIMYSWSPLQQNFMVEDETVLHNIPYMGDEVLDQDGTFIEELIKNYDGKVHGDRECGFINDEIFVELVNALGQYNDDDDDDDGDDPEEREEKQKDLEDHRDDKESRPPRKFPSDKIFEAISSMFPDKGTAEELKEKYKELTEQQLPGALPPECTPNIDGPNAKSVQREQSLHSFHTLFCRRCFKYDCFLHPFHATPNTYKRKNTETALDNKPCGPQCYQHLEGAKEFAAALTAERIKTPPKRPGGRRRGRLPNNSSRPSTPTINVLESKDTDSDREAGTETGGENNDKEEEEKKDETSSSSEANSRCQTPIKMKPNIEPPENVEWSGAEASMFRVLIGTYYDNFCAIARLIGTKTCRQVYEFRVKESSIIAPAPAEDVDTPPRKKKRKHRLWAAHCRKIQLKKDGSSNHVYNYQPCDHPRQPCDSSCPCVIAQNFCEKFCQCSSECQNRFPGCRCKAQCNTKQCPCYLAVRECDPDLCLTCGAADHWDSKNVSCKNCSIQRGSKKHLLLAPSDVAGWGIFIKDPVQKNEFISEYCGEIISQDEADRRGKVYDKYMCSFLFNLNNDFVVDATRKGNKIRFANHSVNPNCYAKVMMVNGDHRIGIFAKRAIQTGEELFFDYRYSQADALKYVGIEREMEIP
Sequence (O75530 whole entry partner): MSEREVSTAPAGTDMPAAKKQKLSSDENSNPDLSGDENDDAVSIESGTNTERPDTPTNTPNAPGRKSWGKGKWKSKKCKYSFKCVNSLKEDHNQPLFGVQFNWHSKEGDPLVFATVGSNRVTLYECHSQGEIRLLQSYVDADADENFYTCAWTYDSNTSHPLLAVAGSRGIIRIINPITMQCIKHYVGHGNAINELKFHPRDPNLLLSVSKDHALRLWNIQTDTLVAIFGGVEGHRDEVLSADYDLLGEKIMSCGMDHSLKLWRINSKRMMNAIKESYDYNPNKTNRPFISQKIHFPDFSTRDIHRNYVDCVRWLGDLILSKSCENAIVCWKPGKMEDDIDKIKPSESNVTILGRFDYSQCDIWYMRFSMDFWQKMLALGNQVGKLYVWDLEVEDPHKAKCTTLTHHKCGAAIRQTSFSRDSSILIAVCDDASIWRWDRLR
Sequence (Q15022 whole entry partner): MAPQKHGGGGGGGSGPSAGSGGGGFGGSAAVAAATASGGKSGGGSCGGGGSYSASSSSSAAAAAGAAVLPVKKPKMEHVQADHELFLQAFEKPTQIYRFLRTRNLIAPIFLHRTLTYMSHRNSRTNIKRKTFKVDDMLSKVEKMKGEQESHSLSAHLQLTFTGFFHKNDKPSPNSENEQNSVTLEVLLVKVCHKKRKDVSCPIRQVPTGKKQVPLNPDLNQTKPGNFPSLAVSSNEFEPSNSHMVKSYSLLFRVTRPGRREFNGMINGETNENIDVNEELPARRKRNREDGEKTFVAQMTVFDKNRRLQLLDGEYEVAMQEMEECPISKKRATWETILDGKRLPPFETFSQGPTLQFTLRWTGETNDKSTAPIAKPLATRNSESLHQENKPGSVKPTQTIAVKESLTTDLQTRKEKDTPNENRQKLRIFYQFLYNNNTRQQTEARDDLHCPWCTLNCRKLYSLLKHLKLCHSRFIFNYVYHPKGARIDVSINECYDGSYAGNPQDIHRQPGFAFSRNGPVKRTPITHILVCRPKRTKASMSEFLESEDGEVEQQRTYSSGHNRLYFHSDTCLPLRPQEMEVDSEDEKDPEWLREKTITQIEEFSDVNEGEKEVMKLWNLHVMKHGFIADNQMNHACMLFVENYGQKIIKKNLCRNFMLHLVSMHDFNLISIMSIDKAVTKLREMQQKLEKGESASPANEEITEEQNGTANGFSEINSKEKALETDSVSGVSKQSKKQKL
Assay: radiometric assay, activity to wild-type EZH2 of PRC2
Quick rule for you: IC50 under 0.9 nM gets label 1, anything else gets label 0.

Reference set, count: 2
{"COMPOUND": "CCN(c1cc(-c2ccc3c(c2)NC(=O)C32CCN(C(C)=O)CC2)cc(C(=O)NCc2c(C)cc(C)[nH]c2=O)c1C)C1CCOCC1 [Example 88]", "ASSIGNED CATEGORY": "label 0"}
{"COMPOUND": "CCN(c1cc(-c2ccc3c(c2)N(C(C)C(C)C)CC32CCOCC2)c(Cl)c(C(=O)NCc2c(C)cc(C)[nH]c2=O)c1C)C1CCOCC1 (centres unmarked) [Example 55]", "ASSIGNED CATEGORY": "label 1"}

Consider CCN(c1cc(-c2ccc3c(c2)NC(=O)C32CCOCC2)cc(C(=O)NCc2c(OC)cc(C)[nH]c2=O)c1C)C1CCC(N(C)C)CC1 (centres unmarked) [Example 100] . Does its IC50 lie strictly below 0.9 nM?
label 0

Further, for CCN(c1cc(-c2ccc3c(c2)C2(CCC(F)CC2)C(=O)N3)cc(C(=O)NCc2c(C)cc(C)[nH]c2=O)c1C)C1CCOCC1 (centres unmarked) [Example 119] ?
label 0

----------
Molecular target: Mutant type EZH2(Y641N) (Homo sapiens (Human), UniProt Q15910, Y641N)
Sequence (Q15910 whole entry Y641N): as the sequence (Q15910 whole entry) above, with Y641N counted along it
Sequence (O75530 whole entry partner): as the sequence (O75530 whole entry partner) above
Sequence (Q15022 whole entry partner): as the sequence (Q15022 whole entry partner) above
Sequence (Q09028 whole entry partner): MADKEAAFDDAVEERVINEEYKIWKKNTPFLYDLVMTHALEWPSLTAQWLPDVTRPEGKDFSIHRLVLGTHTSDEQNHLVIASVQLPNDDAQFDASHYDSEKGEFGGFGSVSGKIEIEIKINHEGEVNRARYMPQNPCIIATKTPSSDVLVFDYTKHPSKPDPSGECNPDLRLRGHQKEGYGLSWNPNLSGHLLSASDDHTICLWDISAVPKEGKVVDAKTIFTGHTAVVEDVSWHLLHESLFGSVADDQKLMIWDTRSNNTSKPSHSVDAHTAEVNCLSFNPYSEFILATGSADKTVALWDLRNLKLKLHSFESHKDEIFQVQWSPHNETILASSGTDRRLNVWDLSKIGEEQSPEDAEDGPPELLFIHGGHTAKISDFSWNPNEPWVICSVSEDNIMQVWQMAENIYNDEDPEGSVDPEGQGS
Sequence (Q6ZN18 whole entry partner): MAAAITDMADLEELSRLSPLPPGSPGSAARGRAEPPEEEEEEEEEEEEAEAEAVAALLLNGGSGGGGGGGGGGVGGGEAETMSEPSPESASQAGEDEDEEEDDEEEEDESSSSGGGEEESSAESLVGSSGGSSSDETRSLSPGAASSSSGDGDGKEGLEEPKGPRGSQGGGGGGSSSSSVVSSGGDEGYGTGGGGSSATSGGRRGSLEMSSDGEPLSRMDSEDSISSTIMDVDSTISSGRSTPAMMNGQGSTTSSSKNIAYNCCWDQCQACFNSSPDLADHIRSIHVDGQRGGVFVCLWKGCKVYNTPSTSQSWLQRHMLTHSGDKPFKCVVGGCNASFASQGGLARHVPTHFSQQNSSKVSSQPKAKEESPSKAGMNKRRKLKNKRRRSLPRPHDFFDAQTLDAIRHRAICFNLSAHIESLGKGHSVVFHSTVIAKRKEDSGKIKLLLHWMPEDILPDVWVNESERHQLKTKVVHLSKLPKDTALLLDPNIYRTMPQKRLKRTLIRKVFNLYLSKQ
Assay: AlphaLISA, mutant type PRC2 complex EZH2(Y641N)
Conditions: read-out: Mutant type EZH2(Y641N) IC50 Nanomoles per Liter
Hi there, I'd appreciate the recorded pIC50 for every entry that follows.
Answers are plain numbers, as −log10 of the molar value.

Hi, could you look up pIC50 for each item in my list?
1. CCN(c1cc(-c2ccc3c(c2)C(=O)C2(CCOCC2)C3)cc(C(=O)NCc2c(C)cc(C)[nH]c2=O)c1C)C1CCOCC1 [Example 78]
2. CCN(c1cc(-c2ccc3c(c2)NC(=O)C32CCOCC2)cc(C(=O)NCc2c(OC)cc(C)[nH]c2=O)c1C)C1CCC(N(C)C)CC1 (stereo not drawn) [Example 100]
3. CCN(c1cc(-c2ccc3c(c2)NC(=O)C32CCOCC2)cc(C(=O)NCc2c(OC)cc(C)[nH]c2=O)c1C)C1CCOCC1OC (stereo not drawn) [Example 112]

[9.64, 9.38, 9.32]

----------
Molecular target: Mutant type EZH2(A677G) (Homo sapiens (Human), UniProt Q15910, A677G)
Sequence (Q15910 whole entry A677G): as the sequence (Q15910 whole entry) above, with A677G counted along it
Sequence (O75530 whole entry partner): as the sequence (O75530 whole entry partner) above
Sequence (Q15022 whole entry partner): as the sequence (Q15022 whole entry partner) above
Sequence (Q09028 whole entry partner): as the sequence (Q09028 whole entry partner) above
Sequence (Q6ZN18 whole entry partner): as the sequence (Q6ZN18 whole entry partner) above
Experiment: AlphaLISA, mutant type PRC2 complex EZH2(A677G)
Type: biochemical
Conditions: read-out: Mutant type EZH2(A677G) IC59 Nanomoles per Liter
ASSAY READOUT: IC50

{"MOLECULE": "CCN(c1cc(-c2ccc3c(c2)NC(=O)C32CCOCC2)cc(C(=O)NCc2c(OC)cc(C)[nH]c2=O)c1C)C1CCOCC1OC (stereo not shown) [Example 112]", "ASSAY READOUT": "IC50", "TEST VALUE": "0.51 nM"}
{"MOLECULE": "CCN(c1cc(-c2ccc3c(c2)NC(=O)C32CCC(F)(F)CC2)cc(C(=O)NCc2c(C)cc(C)[nH]c2=O)c1C)C1CCOCC1 [Example 91]", "ASSAY READOUT": "IC50", "TEST VALUE": "0.71 nM"}
{"MOLECULE": "CCN(c1cc(-c2ccc3c(c2)NC(=O)C32CCOCC2)cc(C(=O)NCc2c(C)cc(C)[nH]c2=O)c1C)C1CCN(C)CC1 [Example 81]", "ASSAY READOUT": "IC50", "TEST VALUE": "0.63 nM"}
{"MOLECULE": "CCN(c1cc(-c2cnc3c(c2)NC(=O)C32CCOCC2)cc(C(=O)NCc2c(C)cc(C)[nH]c2=O)c1C)C1CCOCC1 [Example 101]", "ASSAY READOUT": "IC50", "TEST VALUE": "0.82 nM"}
{"MOLECULE": "CCN(c1cc(-c2cc3c(cc2F)CCC32CCOCC2)cc(C(=O)NCc2c(C)cc(C)[nH]c2=O)c1C)C1CCOCC1 [Example 24]", "ASSAY READOUT": "IC50", "TEST VALUE": "0.41 nM"}
{"MOLECULE": "CCN(c1cc(-c2ccc3c(c2)NC(=O)C32CCOCC2)cc(C(=O)NCc2c(OC)cc(C)[nH]c2=O)c1C)C1CCC(N(C)CCOC)CC1 (stereo not shown) [Example 120]", "ASSAY READOUT": "IC50", "TEST VALUE": "0.53 nM"}
{"MOLECULE": "CCN(c1cc(-c2ccc3c(c2)C2(CCOCC2)C(=O)N3C)cc(C(=O)NCc2c(OC)cc(C)[nH]c2=O)c1C)C1CCN(CC(F)(F)F)CC1 [Example 109]", "ASSAY READOUT": "IC50", "TEST VALUE": "0.63 nM"}
{"MOLECULE": "CCN(c1cc(-c2ccc3c(c2)NC(=O)C32CCOCC2)cc(C(=O)NCc2c(C)cc(C)[nH]c2=O)c1C)C1CCSCC1 [Example 95]", "ASSAY READOUT": "IC50", "TEST VALUE": "0.48 nM"}
{"MOLECULE": "CCN(c1cc(-c2ccc3c(c2)NC(=O)C32CCS(=O)(=O)CC2)cc(C(=O)NCc2c(C)cc(C)[nH]c2=O)c1C)C1CCOCC1 [Example 90]", "ASSAY READOUT": "IC50", "TEST VALUE": "0.58 nM"}
{"MOLECULE": "CCN(c1cc(-c2ccc3c(c2)NC(=O)C32CCOCC2)cc(C(=O)NCc2c(C)cc(C)[nH]c2=O)c1C)C1CCS(=O)(=O)CC1 [Example 96]", "ASSAY READOUT": "IC50", "TEST VALUE": "0.57 nM"}

// input: 2 molecules below; output: IC50 for each
1. CCN(c1cc(-c2ccc3c(c2)C2(CCOCC2)C(=O)N3C)cc(C(=O)NCc2c(OC)cc(C)[nH]c2=O)c1C)C1CCN(CC(F)(F)F)CC1 [Example 123]
2. CCN(c1cc(-c2ccc3c(c2)NC(=O)C32CCC(=O)CC2)cc(C(=O)NCc2c(C)cc(C)[nH]c2=O)c1C)C1CCOCC1 [Example 92]

0.72 nM
0.57 nM

Please look at the items below and tell me IC50 for each one, in order.
1. CCN(c1cc(-c2ccc3c(c2)NCC32CCOCC2)cc(C(=O)NCc2c(C)cc(C)[nH]c2=O)c1C)C1CCNCC1 [Example 6]
2. CCN(c1cc(-c2ccc3c(c2)C(=O)C2(CCN(C)CC2)C3)cc(C(=O)NCc2c(C)cc(C)[nH]c2=O)c1C)C1CCOCC1 [Example 107]
3. CCN(c1cc(-c2ccc3c(c2)NC(=O)C32CCOCC2)cc(C(=O)NCc2c(C)cc(C)[nH]c2=O)c1C)C1CC(C)OC(C)C1 (stereo not shown) [Example 104]
4. CCN(c1cc(-c2ccc3c(c2)N(C(C)C(C)C)CC32CCOCC2)c(Cl)c(C(=O)NCc2c(C)cc(C)[nH]c2=O)c1C)C1CCOCC1 (stereo not shown) [Example 55]
5. CCN(c1cc(-c2ccc3c(c2)NC(=O)C32CCN(C3COC3)CC2)cc(C(=O)NCc2c(C)cc(C)[nH]c2=O)c1C)C1CCOCC1 [Example 84]
6. CCN(c1cc(-c2ccc3c(c2)CCC32CCOCC2)cc(C(=O)NCc2c(OC)cc(C)[nH]c2=O)c1C)C1CCOCC1 [Example 113]
7. CCN(c1cc(-c2ccc3c(c2)NC(=O)C32CCOCC2)cc(C(=O)NCc2c(C)cc(C)[nH]c2=O)c1C)C1CCC(N(C)C2COC2)CC1 (stereo not shown) [Example 121]

1. 0.2 nM
2. 0.67 nM
3. 0.27 nM
4. 0.42 nM
5. 0.47 nM
6. 0.38 nM
7. 0.68 nM
